Experiment: physchem
Assay type: physicochemical
Settings: buffer, pH 7.4
METRIC NAME: half-life at 20 μg/mL

# get_value(readout='half-life at 20 μg/mL', item= "O=C1C(=CNc2ccc(N3CCOCC3)cc2)c2ccccc2N1CN1CCCCC1" )
< 30 min

###

Assay: physchem
Assay type: physicochemical
Details: buffer, pH 1
METRIC NAME: half-life at 20 μg/mL

# get_value(readout='half-life at 20 μg/mL', item= "O=C1C(=CNc2ccc(N3CCOCC3)cc2)c2ccccc2N1CN1CCCCC1" )
~38 h

###

Molecular target: human VEGF receptor (VEGFR-2) (Homo sapiens, UniProt P35968)
Sequence (P35968 786-1356 limits assumed): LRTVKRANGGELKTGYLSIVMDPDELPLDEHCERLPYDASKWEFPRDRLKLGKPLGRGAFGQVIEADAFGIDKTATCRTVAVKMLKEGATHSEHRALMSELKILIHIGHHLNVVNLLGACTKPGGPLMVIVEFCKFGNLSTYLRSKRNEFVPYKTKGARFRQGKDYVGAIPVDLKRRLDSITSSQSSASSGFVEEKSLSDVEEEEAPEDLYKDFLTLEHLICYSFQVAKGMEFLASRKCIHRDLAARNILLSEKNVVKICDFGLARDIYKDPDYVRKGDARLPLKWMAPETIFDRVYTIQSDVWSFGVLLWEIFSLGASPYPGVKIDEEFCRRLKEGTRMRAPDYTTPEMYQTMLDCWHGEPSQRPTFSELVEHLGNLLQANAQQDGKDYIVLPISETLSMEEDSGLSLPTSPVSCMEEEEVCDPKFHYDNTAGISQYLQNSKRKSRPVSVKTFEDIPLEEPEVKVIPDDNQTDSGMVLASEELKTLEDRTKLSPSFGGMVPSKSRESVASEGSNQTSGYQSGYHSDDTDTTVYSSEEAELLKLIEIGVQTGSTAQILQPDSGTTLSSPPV
METRIC NAME: IC50 (µM)
Field: numeric (µM). Do not append units.

For orientation, consider the following solved cases.
# COMPOUND, METRIC NAME, UOM, DATA VALUE
records = [
    ("O=C1C(=CNc2ccc(N3CCOCC3)cc2)c2ccccc2N1CN1CCCCC1 [Example 12]", "IC50", "µM", 0.478),
    ("O=C1Nc2ccccc2C1=CNc1ccc(N2CCOCC2)cc1 [Example 11]", "IC50", "µM", 0.26),
]

Let's switch to this compound now.
# get_value(readout='IC50', item= CN(C)c1ccc2c(c1)COC2=C1C(=O)N(CN2CCCCC2)c2ccccc21 [Example 19] )
0.133
